# test: Log P by HPLC on reversed phase columns (EEC directive 79/831 Annex V.A8)
# Assay type: physicochemical
# testContext: method [b]: LC-UV, neutral range, 0.001 molar ammonium acetate solution in water and acetonitrile as eluent
measuredQuantity: chromatographic logP
Give the figure only, with no unit attached.

Consider the molecule shown here: OC(Cc1cccnc1Cl)(Cn1cnnn1)C1(Cl)CC1 (stereo not shown) [Ia-03] What is its recorded chromatographic logP?
1.68

----------
# test: Log P by HPLC on reversed phase columns (EEC directive 79/831 Annex V.A8)
# Type: physicochemical
# testContext: method [a]: LC-UV, acidic range, 0.1% formic acid in water and acetonitrile as eluent
measuredQuantity: chromatographic logP
Give the figure only, with no unit attached.

Example cases with answers are listed next.
OC(Cc1cccnc1Cl)(Cn1cnnn1)C1(Cl)CC1 (centres unmarked)
1.72
OC(Cc1ccccc1F)(Cn1ncnn1)C1(Cl)CC1 (centres unmarked)
2.86
O=C(Cn1cnnn1)C1(Cl)CC1
0.99

Consider the compound shown here: CC(c1ccccc1F)C(O)(Cn1cnnn1)C1(Cl)CC1 (single isomer, unassigned) What is its recorded chromatographic logP?
2.61

Consider the compound shown here: OC(Cc1ccccc1Cl)(Cn1ncnn1)C1(Cl)CC1 (centres unmarked) What is its recorded chromatographic logP?
3.2

Consider the compound shown here: OC(Cc1ccccc1Cl)(Cn1cnnn1)C1(Cl)CC1 (centres unmarked) What is its recorded chromatographic logP?
2.65

Consider the compound shown here: OC(Cc1ccccc1F)(Cn1cnnn1)C1(Cl)CC1 (centres unmarked) What is its recorded chromatographic logP?
2.46

Consider the compound shown here: O=C(Cn1ncnn1)C1(Cl)CC1 What is its recorded chromatographic logP?
1.3

Consider the compound shown here: OC(Cc1ccccc1)(Cn1cnnn1)C1(Cl)CC1 (centres unmarked) What is its recorded chromatographic logP?
2.41

Consider the compound shown here: OC(Cc1cccnc1Cl)(Cn1ncnn1)C1(Cl)CC1 (centres unmarked) What is its recorded chromatographic logP?
2.03

Consider the compound shown here: C=C(c1ccccc1F)C(O)(Cn1cnnn1)C1(Cl)CC1 (centres unmarked) What is its recorded chromatographic logP?
2.46
